- assayExplanation: qHTS assay to identify small molecule phospholipidosis (PLD) inducers (AID 1259344); also: % is scaled to controls: 0 for no effect and ±100 for the full control effect
- assayContext: HepG2 phospholipidosis, LipidTOX Red imaging, 24 h; series mostly up to 38.3 µM
Inconclusive results are not listed. Activity calls are given as the source filed them. Calls follow the shape of the dose curve; as a rule, active = well fitted activation curve with a large enough effect; inconclusive = small, poorly fitted or top-dose-only effect; inactive = flat fitted curve, though single readings scatter.
recordedEndpoint: PLD induction

Entry OC(CN1CCCCC1)c1cc(-c2ccccc2)on1 (centres undefined) ; PLD induction = inactive

Entry `CCCCCCCCCCCCCCCC(=O)O[C@@H]1[C@@H](O)[C@@H](O)[C@@H]([C@H](NC(=O)[C@@H]2C[C@@H](CCC)CN2C)[C@H](C)Cl)O[C@@H]1SC` ; PLD induction = inactive

Entry `CC(=O)[C@]1(O)Cc2c(O)c3c(c(O)c2[C@@H](O[C@H]2C[C@H](N)[C@H](O)[C@H](C)O2)C1)C(=O)c1c(O)cccc1C3=O` ; PLD induction = -0.0504% [at 7.66 µM] (inactive)

Entry `COc1cc2c(cc1OC)CC(=O)N(CCCN(C)C[C@H]1Cc3cc(OC)c(OC)cc31)CC2` ; PLD induction = inactive

---

- assayExplanation: qHTS assay to identify small molecule antagonists of the estrogen receptor alpha (ER-alpha) signaling pathway - cell viability counter screen (AID 743074);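 also: HEK293 cells carrying ER-alpha-UAS-bla reporter stimulated with 17beta-estradiol; % is scaled to controls: 0 for no effect and ±100 for the full control effect; nearly all actives have a fitted effect of over 45% in size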
- assayContext: ERalpha-bla HEK293 viability, CellTiter-Glo luminescence, 18 h; series mostly up to 69.4 µM
Records with an inconclusive call do not appear. Calls of active or inactive are those of the source. Calls come from the whole dose curve.
recordedEndpoint: outcome

Below are worked cases with known answers.
Entry `CC(=O)[C@]1(O)Cc2c(O)c3c(c(O)c2[C@@H](O[C@H]2C[C@H](N)[C@H](O)[C@H](C)O2)C1)C(=O)c1c(O)cccc1C3=O` ; outcome = inactive

Entry CN(CCO)CC(O)Cn1cnc2c1c(=O)n(C)c(=O)n2C (stereo unspecified) (tested in a mixture with another compound) ; outcome = inactive

Entry C=CC1=C(C)C2=CC3=NC(=C(CC(=O)[O-])C4=NC(=C(C)C4=C([O-])[O-])C=c4[n-]c(c(C)c4CC)=CC1=N2)C(CCC(=O)[O-])C3C.[Cu+2].[Na+].[Na+].[Na+] (stereo unspecified) ; outcome = inactive

Entry `CCOC(=O)C1=C[C@@H](OC(CC)CC)[C@H](NC(C)=O)[C@@H](N)C1` ; outcome = inactive

Next:
Entry CC(C)(C)C1(O)CCN2CC3c4ccccc4CCc4cccc(c43)C2C1 (stereo unspecified) ; outcome = inactive

Entry `C[C@@H]1C/C=C/C=C/C=C/C=C/[C@H](O[C@@H]2O[C@H](C)[C@@H](O)[C@H](N)[C@@H]2O)C[C@@H]2O[C@](O)(C[C@@H](O)C[C@H]3O[C@@H]3/C=C/C(=O)O1)C[C@H](O)[C@H]2C(=O)O` ; outcome = inactive

---

- targetOfAssay: Aryl hydrocarbon receptor (Homo sapiens)
- assayExplanation: qHTS assay to identify small molecule that activate the aryl hydrocarbon receptor (AhR) signaling pathway (AID 743085); also: nearly all actives have a fitted effect of over 15% in size;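 as to activation: HG2L7.5c1 human HepG2 liver cells with stably integrated DRE-driven firefly reporter; % is scaled to controls: 0 for no effect and ±100 for the full control effect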
- assayContext: HepG2 AhR-luc (HG2L7.5c1), luciferase, 24 h; series mostly up to 70.3 µM
Records with an inconclusive call do not appear. Calls of active or inactive are those of the source. Calls come from the whole dose curve; as a rule, active = well fitted activation curve with a large enough effect in the repeat runs; inconclusive = weak or mixed curves; inactive = no such curve, though single readings can be large or run the other way.
Result category, one only: Yes (active), No (inactive)

Examples with answers:
Please state the recorded outcome for this molecule: `c1cnc2cc3c(cc2n1)[C@@H]1CNC[C@H]3C1`
No

Please state the recorded outcome for this molecule: `C=C1C(=C/C=C2\CCC[C@]3(C)[C@@H]([C@H](C)CCCC(C)(C)O)CC[C@@H]23)C[C@@H](O)C[C@@H]1O`
Yes

Please state the recorded outcome for this molecule: `O=C1/C(=C\c2cccs2)CCC/C1=C\c1cccs1`
Yes

Please state the recorded outcome for this molecule: `CCCCCCCCCCCCCCCC(=O)OC[C@@H](COP(=O)([O-])OCC[N+](C)(C)C)OC(=O)CCCCCCCCCCCCCCC`
No

Please state the recorded outcome for this molecule: CN1CCC(CN2c3ccccc3Sc3ccccc32)C1 (stereo not given)
No

Read the next record carefully.
Please state the recorded outcome for this molecule: `CC(C)N=c1cc2n(-c3ccc(Cl)cc3)c3ccccc3nc-2cc1Nc1ccc(Cl)cc1`
No

---

- targetOfAssay: Estrogen receptor (Homo sapiens) (UniProt P03372)
- Sequence (P03372 whole entry, looked up): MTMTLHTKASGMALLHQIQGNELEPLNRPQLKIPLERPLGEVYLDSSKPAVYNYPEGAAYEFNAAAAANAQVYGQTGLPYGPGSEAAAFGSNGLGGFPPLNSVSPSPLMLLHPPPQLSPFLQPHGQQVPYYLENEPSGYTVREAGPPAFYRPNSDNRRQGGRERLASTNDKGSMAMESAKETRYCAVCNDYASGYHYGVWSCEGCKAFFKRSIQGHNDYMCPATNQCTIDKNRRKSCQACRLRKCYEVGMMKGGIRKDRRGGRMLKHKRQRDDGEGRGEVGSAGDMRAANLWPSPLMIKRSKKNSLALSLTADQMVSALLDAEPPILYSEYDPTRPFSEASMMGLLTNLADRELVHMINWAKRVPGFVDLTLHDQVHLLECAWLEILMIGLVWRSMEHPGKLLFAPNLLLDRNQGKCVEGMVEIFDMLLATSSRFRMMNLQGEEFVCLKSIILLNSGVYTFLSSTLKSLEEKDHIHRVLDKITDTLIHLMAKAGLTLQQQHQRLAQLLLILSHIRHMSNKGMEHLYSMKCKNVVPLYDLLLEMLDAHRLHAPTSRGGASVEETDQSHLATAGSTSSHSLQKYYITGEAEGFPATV
- assayExplanation: qHTS assay to identify small molecule agonists of the estrogen receptor alpha (ER-alpha) signaling pathway using the BG1 cell line (AID 743079); also: nearly all actives have a fitted effect of over 20% in size; as to activation: % is scaled to controls: 0 for no effect and ±100 for the full control effect
- assayContext: BG1Luc4E2 cells, ERE-luciferase agonist, 22 h
Results filed as inconclusive are left out. Calls of active or inactive are those of the source. Calls come from the whole dose curve; as a rule, active = well fitted activation curve with a large enough effect in the repeat runs; inconclusive = weak or mixed curves, or effect the other way; inactive = no such curve, though single readings can be large or run the other way.
Result category, one only: active, inactive

Please state the recorded outcome for this compound: `CO[C@H]1[C@@H](O)[C@H](N)[C@@H](O[C@H]2O[C@H]([C@H](C)N)CC[C@H]2N)[C@H](O)[C@@H]1N(C)C(=O)CN`
active

Next:
Please state the recorded outcome for this compound: `NCCC(=O)[N-][C@@H](Cc1cnc[nH]1)C(=O)O.[Zn]`
inactive

Please state the recorded outcome for this compound: `CCC(=O)OCC(=O)[C@@]1(OC(=O)CC)[C@@H](C)C[C@H]2[C@@H]3CCC4=CC(=O)C=C[C@]4(C)[C@@]3(Cl)[C@@H](O)C[C@@]21C`
inactive

Please state the recorded outcome for this compound: `CCCC(CCC)C(N)=O`
inactive

Please state the recorded outcome for this compound: `C#C[C@]1(O)CC[C@H]2[C@@H]3CCC4=CCCC[C@@H]4[C@H]3C(=C)C[C@@]21CC`
active

Please state the recorded outcome for this compound: CN1CCC(CN2c3ccccc3Sc3ccccc32)C1 (stereo not drawn)
inactive

Please state the recorded outcome for this compound: CN[C@@H]1[C@@H](O)[C@@H](O[C@@H]2[C@@H](O)[C@H](O[C@H]3O[C@H](CN)[C@@H](O)[C@H](O)[C@H]3O)[C@@H](N)C[C@H]2NC(=O)C(O)CN)OC[C@]1(C)O (stereo partly drawn)
inactive

Please state the recorded outcome for this compound: `CC1(C)S[C@@H]2[C@H](NC(=O)[C@H](N)c3ccccc3)C(=O)N2[C@H]1C(=O)OCOC(=O)[C@@H]1N2C(=O)C[C@H]2S(=O)(=O)C1(C)C`
inactive

---

- assayExplanation: qHTS assay to identify small molecule phospholipidosis (PLD) inducers (AID 1259344); also: % is scaled to controls: 0 for no effect and ±100 for the full control effect
- assayContext: HepG2 phospholipidosis, LipidTOX Red imaging, 24 h; series mostly up to 38.3 µM
Records with an inconclusive call do not appear. The source made the active and inactive calls. Calls follow the shape of the dose curve; as a rule, active = well fitted activation curve with a large enough effect; inconclusive = small, poorly fitted or top-dose-only effect; inactive = flat fitted curve, though single readings scatter. Positions of bridges follow the written chain, without caps; N, C: chain ends. Non-standard residues stand in square brackets, D forms with d. Residues, ends and D or L forms follow the SMILES beside them. *: point of attachment. X2 = CC[C@H](C)CCCCC(=O)*; Dab = NCC[C@H](N)C(=O)O
recordedEndpoint: PLD induction

Below are worked cases with known answers.
Entry `CNc1cc(OC)c(C(=O)N[C@H]2CCN(Cc3ccccc3)[C@H]2C)cc1Cl` ; PLD induction = inactive

Entry `NC(=O)Oc1ccc(Cc2ccccc2)cc1` ; PLD induction = inactive

Entry OC1OC[C@@H](O)[C@H](O)[C@@H]1O (stereo not given in full) ; PLD induction = inactive

Entry `CCCCCCCCCCCCCCCCCC(=O)OCCO` ; PLD induction = inactive

Entry `S=C1SCN(Cc2ccccc2)CN1Cc1ccccc1` ; PLD induction = inactive

Entry CC[C@H](C)CCCCC(=O)N[C@@H](CCN)C(=O)N[C@H](C(=O)N[C@@H](CCN)C(=O)N[C@H]1CCNC(=O)[C@@H]([C@H](C)O)NC(=O)[C@H](CCN)NC(=O)[C@H](CCN)NC(=O)[C@H](CC(C)C)NC(=O)[C@@H](CC(C)C)NC(=O)[C@H](CCN)NC1=O)[C@@H](C)O (X2-[Dab]T[Dab][Dab][Dab][dL]L[Dab][Dab][dT]; lactam 4-C) ; PLD induction = inactive

Entry CN1CCN2c3ncccc3Cc3ccccc3C2C1 (stereo not given) ; PLD induction = inactive

Entry `NC[C@@H]1O[C@H](O[C@H]2[C@@H](O)[C@H](O[C@@H]3[C@@H](O)[C@H](N)C[C@H](N)[C@H]3O[C@H]3O[C@H](CO)[C@@H](O)[C@H](O)[C@H]3N)O[C@@H]2CO)[C@H](N)[C@@H](O)[C@@H]1O` ; PLD induction = inactive

Next:
Entry `CO[C@@H]1[C@@H](O[C@@H]2O[C@H](C)[C@@H](O[C@H]3C[C@@](C)(O)[C@@H](O)[C@H](C)O3)[C@H](N(C)C)[C@H]2O)[C@@H](CC=O)C[C@@H](C)[C@@H](O[C@@H]2CC[C@H](N(C)C)[C@@H](C)O2)/C=C/C=C/C[C@@H](C)OC(=O)C[C@H]1O` ; PLD induction = inactive

Entry `Cc1ncc(COP(=O)(O)O)c(CN)c1O` ; PLD induction = -1.52% [at 7.66 µM] (inactive)

Entry CCC(C)[C@@H](N)C(=O)O (stereo not given in full) ; PLD induction = inactive

Entry `CCOC(=O)COc1ccc2c(C)c(CCN(CC)CC)c(=O)oc2c1` ; PLD induction = -3.34% [at 7.66 µM] (inactive)

Entry CCC(C)C(C(=O)OCC[N+](C)(CC)CC)c1ccccc1 (stereo not given) ; PLD induction = inactive

Entry Cc1c(N)nc(C(CC(N)=O)NCC(N)C(N)=O)nc1C(=O)NC(C(=O)NC(C)C(O)C(C)C(=O)NC(C(=O)NCCc1nc(-c2nc(C(=O)NCCCN[C@@H](C)c3ccccc3)cs2)cs1)C(C)O)C(O[C@@H]1O[C@@H](CO)[C@@H](O)[C@H](O)[C@@H]1O[C@H]1O[C@H](CO)[C@@H](O)[C@H](OC(N)=O)[C@@H]1O)c1cnc[nH]1 (stereo not given in full) ; PLD induction = 1.81% [at 7.66 µM] (inactive)

Entry COc1ccc(CCNCC(O)COc2cccc(C)c2)cc1OC (stereo not given) ; PLD induction = inactive

Source: PubChem BioAssay (Tox21)
